Hello, the source for this data is patent US20250340575A1, in case you need it.

Assayed Target: recombinant DYRK1A kinase (Homo sapiens, UniProt Q13627)
Protocol Text: DYRK1A kinase assay (Ser/Thr 18 peptide Z-lyte FRET)
Assay Context: DYRK1A 0.25 μg/mL, ATP 15 μM, Ser/Thr peptide 18 4 μM, one hour at room temperature, 11-point dose-response from 10 μM
IC50 by entry:
The response must be a number in nM with no trailing unit.

• CC(=O)N1CC[C@@H](Nc2nc(N)c3c(-c4ccc5nnn(CC(F)F)c5n4)c(F)cn3n2)C(F)(F)C1 = 1.3
• CC(=O)N1CC[C@H](Nc2nc(N)c3c(-c4ccc5nccn5n4)c(F)cn3n2)[C@H](F)C1 = 3.4

We next turn to a different compound, shown below.
So, `CNc1nc(N[C@H]2CCN(C(C)=O)C[C@H]2F)nn2ccc(-c3ccc4nnn(CCF)c4n3)c12` ? Its IC50 was 2

---

Assayed Target: recombinant DYRK1A kinase (Homo sapiens)
Protocol Text: DYRK1A kinase assay (Ser/Thr 18 peptide Z-lyte FRET)
Assay Context: DYRK1A 0.25 μg/mL, ATP 15 μM, Ser/Thr peptide 18 4 μM, one hour at room temperature, 11-point dose-response from 10 μM
Endpoint Label: IC50 (nM)
The response must be a number in nM with no trailing unit.

- CNc1nc(N[C@@H]2CCN(C)CC2(F)F)nn2ccc(-c3ccc4nnn(CCCF)c4n3)c12 [Compound 338]: 3.1
- CNc1nc(N[C@@H]2CCN(C3COC3)CC2(F)F)nn2cc(F)c(-c3ccc4nnn(CCF)c4n3)c12 [Compound 254]: 2.2
- CNc1nc(N[C@@H]2CCN(C(C)=O)CC2(F)F)nn2cc(F)c(-c3ccc4nccn4n3)c12 [Compound 56]: 1.4
- Cc1nc2ccc(-c3ccn4nc(N[C@@H]5CCN(C6COC6)C[C@@H]5F)nc(N)c34)nc2n1CCF [Compound 141]: 3.4
- CNc1nc(N[C@@H]2CCN(C3COC3)CC2(F)F)nn2cc(F)c(-c3ccc4nccn4n3)c12 [Compound 58]: 1.9

So, C[C@]1(O)CC[C@H](Nc2nc(N)c3c(-c4ccc5ncn(CC(F)(F)F)c5n4)ccn3n2)CC1 [Compound 123] ? Its IC50 was 1.9

---

Assayed Target: recombinant DYRK1A kinase (Homo sapiens, UniProt Q13627)
Protocol Text: DYRK1A kinase assay (Ser/Thr 18 peptide Z-lyte FRET)
Assay Context: DYRK1A 0.25 μg/mL, ATP 15 μM, Ser/Thr peptide 18 4 μM, one hour at room temperature, 11-point dose-response from 10 μM
IC50 by entry:
The response must be a number in nM with no trailing unit.

• C[C@]1(O)CC[C@H](Nc2nc(N)c3c(-c4ccc5ncn(CCF)c5n4)ccn3n2)CC1 = 1.2
• CNc1nc(N[C@H]2CCN(C3COC3)C[C@H]2F)nn2cc(F)c(-c3ccc4nnn(CC(F)F)c4n3)c12 = 1.2

We next turn to a different molecule, shown below.
So, `Nc1nc(N[C@H]2CCN(C3COC3)C[C@H]2F)nn2ccc(-c3ccc4ncn(CCF)c4n3)c12` ? Its IC50 was 0.9

---

Assayed Target: recombinant DYRK1A kinase (Homo sapiens)
Protocol Text: DYRK1A kinase assay (Ser/Thr 18 peptide Z-lyte FRET)
Assay Context: DYRK1A 0.25 μg/mL, ATP 15 μM, Ser/Thr peptide 18 4 μM, one hour at room temperature, 11-point dose-response from 10 μM
Endpoint Label: pIC50
pIC50 is a log-scale quantity: -log10 of the concentration expressed in molar.

Some entries whose results are on file:
* CC(=O)N1CC[C@@H](Nc2nc(N)c3c(-c4ccc5ncn(CCF)c5n4)ccn3n2)C(F)(F)C1 | 9.30
* CNc1nc(N[C@@H]2CCN(C(C)=O)CC2(F)F)nn2cc(F)c(-c3ccc4nc(C)n(CC(F)F)c4n3)c12 | 8.82
* CC[C@]1(O)C[C@H](Nc2nc(NC)c3c(-c4ccc5nnn(CC(F)F)c5n4)ccn3n2)C1 | 9.30

So, `Nc1nc(N[C@@H]2CCN(C3COC3)CC2(F)F)nn2ccc(-c3ccc4ncn(CC(F)(F)F)c4n3)c12` ? Its pIC50 was 8.33

So, `Cc1nc2ccc(-c3ccn4nc(N[C@@H]5CCN(C)CC5(F)F)nc(N)c34)nc2n1CCF` ? Its pIC50 was 8.57

---

pIC50 by entry:
Assayed Target: recombinant DYRK1A kinase (Homo sapiens)
Protocol Text: DYRK1A kinase assay (Ser/Thr 18 peptide Z-lyte FRET)
Assay Context: DYRK1A 0.25 μg/mL, ATP 15 μM, Ser/Thr peptide 18 4 μM, one hour at room temperature, 11-point dose-response from 10 μM
pIC50 is a log-scale quantity: -log10 of the concentration expressed in molar.

• CNc1nc(N[C@H]2CCN(C3COC3)C[C@H]2F)nn2cc(F)c(-c3ccc4nccn4n3)c12 [Compound 54] = 8.62
• CN1C[C@@H](Nc2nc(N)c3c(-c4ccc5ncn(CC(F)(F)F)c5n4)ccn3n2)C(F)(F)C1 [Compound 124] = 9.00
• CNc1nc(N[C@@H]2CCN(S(C)(=O)=O)CC2(F)F)nn2ccc(-c3ccc4nccn4n3)c12 [Compound 48] = 8.66
• CNc1nc(N[C@H]2CCN(C(C)=O)C[C@H]2F)nn2ccc(-c3ccc4nnn(CCCF)c4n3)c12 [Compound 335] = 8.47
• CC(=O)N1CC[C@H](Nc2nc(N)c3c(-c4ccc5nnn(CC(F)F)c5n4)c(F)cn3n2)[C@H](F)C1 [Compound 258] = 8.89
• CN1CC[C@H](Nc2nc(N)c3c(-c4ccc5ncn(CC(F)(F)F)c5n4)ccn3n2)[C@H](F)C1 [Compound 125] = 8.77

We next turn to a different compound, shown below.
So, Nc1nc(N[C@H]2CCN(C3COC3)C[C@H]2F)nn2cc(F)c(-c3ccc4nnn(CC(F)F)c4n3)c12 [Compound 260] ? Its pIC50 was 8.74
